# Tested on: Mice
# Assay comment: Inhalation anesthesia test in mice, 10 minutes in a rotating drum (pinch, corneal and righting reflex): AC50, LC50 and anesthetic index
# Format: in vivo
# Test conditions: inhalation, 10 minutes in rotating drum, at least four graded doses, where two figures are given, the actual value lies between them
Below is a list of entries, each paired with its recorded LC50 (minimum concentration required to kill 50% of the mice) value.
Assay endpoint: LC50 (minimum concentration required to kill 50% of the mice)

molecule="CC1(F)C(F)(F)C1(Cl)Cl (stereo not shown)" reported_result="4-6 % volume"
molecule="FC(F)(F)C1(F)C(F)(F)C1(Cl)Cl (stereo not shown)" reported_result="> 10 % volume"
molecule=FC1(F)C(Cl)(Cl)C1(Cl)Cl reported_result="1 % volume"
molecule="FC1(F)C(F)(Cl)C1(Cl)Cl (stereo not shown)" reported_result="2-10 % volume"
molecule="FC1C(F)(F)C1(Cl)Cl (stereo not shown)" reported_result="4-6 % volume"
molecule="FC1(F)C(F)(Cl)C1(F)Cl (stereo not shown)" reported_result="< 20 % volume"
molecule="CC1(Cl)CC1(F)Cl (stereo not shown)" reported_result="2-4 % volume"

###

Below is a list of entries, each paired with its recorded AC50 (minimum concentration required to anesthetize 50% of the mice) value.
# Tested on: Mice
# Assay comment: Inhalation anesthesia test in mice, 10 minutes in a rotating drum (pinch, corneal and righting reflex): AC50, LC50 and anesthetic index
# Type: in vivo
# Test conditions: inhalation, 10 minutes in rotating drum, at least four graded doses, where two figures are given, the actual value lies between them
Assay endpoint: AC50 (minimum concentration required to anesthetize 50% of the mice) (% volume)

compound="FC1C(F)(F)C1(Cl)Cl (stereo not shown)" value_modifier=< reported_result=2
compound="FC1(F)C(F)(Cl)C1(Cl)Cl (stereo not shown)" value_modifier== reported_result=1.5
compound="CC1(F)C(F)(F)C1(Cl)Cl (stereo not shown)" value_modifier=< reported_result=1
compound=FC1(F)C(Cl)(Cl)C1(Cl)Cl value_modifier== reported_result=0.25
compound="FC(F)(F)C1(F)C(F)(F)C1(Cl)Cl (stereo not shown)" value_modifier== reported_result=4
compound="CC1(Cl)CC1(F)Cl (stereo not shown)" value_modifier=< reported_result=1
